Target: T1, P7bH1
T1 chain: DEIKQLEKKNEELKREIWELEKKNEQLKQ
Assay: two-hybrid library CCNG1;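 also: natural log of median RNA to DNA barcode read ratio; higher means stronger binding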
Would you mind telling me the reported interaction score of each entry?
Numbers only.

For orientation, consider the following solved cases.
>>> measured("DENKQLEKKIEELKRKNWELKKEIEQLEQ [P5bH1]")
-2.02
>>> measured("DKNAQLEQKIAELKQKIAELEWENAQLEQ [4H3427-bA]")
-0.632
>>> measured("DEIKQLEKENEELERENWELEKEIEQLEQ [P1bH1]")
-0.809
>>> measured("DKIKQLKKKIEELKRENWELEKENEQLEQ [P4bH1]")
-0.994
>>> measured("DEIKQLEKKNEELKREIWELEKKNEQLKQ [P7bH1]")
-0.0541

For each of the items listed, what is its interaction score?
1. DKNKQLKKENEELERKIWELKKKIEQLKQ [P10bH1]
2. DKIKQLKKKNEELKRKNWELKKKIEQLKQ [P2bH1]

Result ::
[0.654, 0.231]
